# ASSAY COMMENT: Volume of distribution in dog
# Format: ADME, organism-based, Canis lupus familiaris
# TEST CONTEXT: in vivo, read-out: Vdss
REPORTED PROPERTY: Vd (L/kg)

(I) CC(C)C[C@@H]1C(=O)N[C@H](C2Cc3ccccc3C2)C(=O)N1[C@@H](C(=O)NC(C)C)c1ccc(N(C)C)cc1
(II) CC(C)C[C@@H]1C(=O)N[C@H](C2Cc3ccccc3C2)C(=O)N1[C@@H](C(=O)NC(C)C)c1ccc(F)cc1
[in] Problem: Given the entries I and II , determine which has the lower reported Vd. Give the label of your selection.
[out] II

----------
# ASSAY COMMENT: Bioavailability in rat
# Type: ADME, organism-based
# TEST CONTEXT: in vivo
REPORTED PROPERTY: bioavailability (%)

Solved entries:
{"columns": ["CHEMICAL STRUCTURE", "REPORTED PROPERTY", "OBSERVED"],
 "data": [
  ["CC(C)C[C@@H]1C(=O)N[C@H](C2Cc3ccccc3C2)C(=O)N1[C@@H](C(=O)NC(C)C)c1ccc(N(C)C)cc1", "bioavailability", 5],
  ["CC(C)C[C@@H]1C(=O)N[C@H](C2Cc3ccccc3C2)C(=O)N1[C@@H](C(=O)NC(C)(C)C)c1ccc(Cl)cc1", "bioavailability", 2],
  ["CC(C)C[C@@H]1C(=O)N[C@H](C2Cc3ccccc3C2)C(=O)N1[C@@H](C(=O)NC(C)C)c1ccc(F)cc1", "bioavailability", 13]
]}

(P) CC(C)C[C@@H]1C(=O)N[C@H](C2Cc3ccccc3C2)C(=O)N1[C@@H](C(=O)NC(C)C)c1ccc(S(C)(=O)=O)cc1
(Q) CC(C)C[C@@H]1C(=O)N[C@H](C2Cc3ccccc3C2)C(=O)N1[C@@H](C(=O)NC(C)C)c1ccccc1
[in] Lab note: record which item had the higher bioavailability, P or Q . Give the label of your selection.
[out] Q
(Q: 5%, P: 3%)

These measurements were taken from ChEMBL document CHEMBL1140377.
